Molecular target: GluA2Qflip AMPA receptor subunit (Rattus norvegicus, UniProt P19491-2 P19491-2:22-883)
Sequence (P19491 other isoform, or with tags, fused parts or gaps): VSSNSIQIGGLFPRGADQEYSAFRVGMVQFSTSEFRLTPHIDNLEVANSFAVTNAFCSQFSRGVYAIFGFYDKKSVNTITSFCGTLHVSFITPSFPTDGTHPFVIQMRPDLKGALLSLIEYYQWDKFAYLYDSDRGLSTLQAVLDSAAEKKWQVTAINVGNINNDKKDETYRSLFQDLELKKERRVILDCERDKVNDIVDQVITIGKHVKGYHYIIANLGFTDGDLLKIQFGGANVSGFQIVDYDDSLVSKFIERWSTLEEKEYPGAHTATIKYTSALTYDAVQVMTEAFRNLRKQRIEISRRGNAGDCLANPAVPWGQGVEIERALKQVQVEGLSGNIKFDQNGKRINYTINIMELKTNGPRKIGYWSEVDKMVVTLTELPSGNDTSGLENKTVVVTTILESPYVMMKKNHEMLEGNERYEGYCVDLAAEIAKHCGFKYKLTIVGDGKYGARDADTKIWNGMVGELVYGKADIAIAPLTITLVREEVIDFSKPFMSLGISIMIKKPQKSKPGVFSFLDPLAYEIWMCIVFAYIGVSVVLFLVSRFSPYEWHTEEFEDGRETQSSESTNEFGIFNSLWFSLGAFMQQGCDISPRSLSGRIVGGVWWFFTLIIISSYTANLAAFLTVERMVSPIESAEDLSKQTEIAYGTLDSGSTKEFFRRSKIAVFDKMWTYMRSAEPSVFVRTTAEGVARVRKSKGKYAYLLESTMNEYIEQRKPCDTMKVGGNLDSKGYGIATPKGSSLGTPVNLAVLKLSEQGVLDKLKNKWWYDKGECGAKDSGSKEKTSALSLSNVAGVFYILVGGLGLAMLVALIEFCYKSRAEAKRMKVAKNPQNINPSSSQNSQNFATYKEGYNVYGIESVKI
Assay: competition; closed-channel conformation; homologous competition with radiolabeled AF42
Details: chain copies: 4 (inferred)
readout_label: pKd
Answers are plain numbers, as −log10 of the molar value.

Consider GGGAACGGUGCCAGUCCGAAACGGAUCGUUAGAGCAUCAGUA (ssRNA) [AF42] . Its measured pKd is 7.24
